The measured values listed here are drawn from ChEMBL document CHEMBL3879914.

SYSTEM_UNDER_TEST: Vasoactive intestinal polypeptide receptor 2 (Homo sapiens) (UniProt P41587)
Sequence (P41587 whole entry): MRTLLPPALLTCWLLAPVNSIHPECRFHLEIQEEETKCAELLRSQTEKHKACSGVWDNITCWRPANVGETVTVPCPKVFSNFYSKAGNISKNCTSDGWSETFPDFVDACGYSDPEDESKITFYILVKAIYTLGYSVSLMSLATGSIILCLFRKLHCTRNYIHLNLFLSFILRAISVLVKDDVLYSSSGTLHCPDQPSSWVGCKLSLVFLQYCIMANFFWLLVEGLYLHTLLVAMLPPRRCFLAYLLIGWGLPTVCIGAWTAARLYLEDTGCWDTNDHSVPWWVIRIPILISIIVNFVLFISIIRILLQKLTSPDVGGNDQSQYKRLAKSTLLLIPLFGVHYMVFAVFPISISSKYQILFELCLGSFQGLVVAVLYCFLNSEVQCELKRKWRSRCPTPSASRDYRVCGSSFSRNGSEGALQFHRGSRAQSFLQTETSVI
PROCEDURE_SUMMARY: Antagonist activity at recombinant human N-terminal signal peptide/FLAG epitope-tagged VIPR2 expressed in HEK293 cells co-expressing CAMYEL assessed as inhibition of VIP-induced cAMP accumulation at 1 uM preincubated for 5 mins with luciferin, coelenterazine H followed by VIP addition measured after 5 mins by BRET assay relative to control
Assay type: functional, cell-based
Everything with inhibition lower than 10% is F; everything else, including exactly 10%, is T.

[[record]]
compound = "CCC(=O)Nc1ccc(S(=O)(=O)NC[C@@H](O)C[C@@H](Cc2ccccc2)C(=O)N[C@H]2c3ccccc3C[C@H]2O)cc1"
class_label = "F"

[[record]]
compound = "O=C(NC1CCCCCC1)[C@@H](Cc1ccccc1)C[C@H](O)CNS(=O)(=O)c1ccc([N+](=O)[O-])cc1"
class_label = "T"

[[record]]
compound = "O=C(NC1CCCC1)c1ccc(S(=O)(=O)NC[C@@H](O)C[C@@H](Cc2ccccc2)C(=O)N[C@H]2c3ccccc3C[C@H]2O)cc1"
class_label = "T"

[[record]]
compound = "CO[C@@H]1Cc2ccccc2[C@@H]1NC(=O)[C@H](Cc1ccccc1)C[C@H](O)CN(C)S(=O)(=O)c1ccc([N+](=O)[O-])cc1"
class_label = "T"

[[record]]
compound = "CC(C)(C)c1ccc(S(=O)(=O)NC[C@@H](O)C[C@@H](Cc2ccccc2)C(=O)N[C@H]2c3ccccc3C[C@H]2O)cc1"
class_label = "T"

[[record]]
compound = "O=C(NCCc1cccc(Cl)c1)[C@@H](Cc1ccccc1)C[C@H](O)CNS(=O)(=O)c1ccc([N+](=O)[O-])cc1"
class_label = "T"

[[record]]
compound = "CC(C)CNc1ccc(S(=O)(=O)NC[C@@H](O)C[C@@H](Cc2ccccc2)C(=O)N[C@H]2c3ccccc3C[C@H]2O)cc1"
class_label = "T"

[[record]]
compound = "O=C(N[C@H]1c2ccccc2C[C@H]1O)[C@H](Cc1ccccc1)C[C@H](O)CNS(=O)(=O)c1ccc(C(=O)N2CCCCC2)cc1"
class_label = "F"

[[record]]
compound = "O=C([C@H](Cc1ccccc1)C[C@H](O)CNS(=O)(=O)c1ccc([N+](=O)[O-])cc1)N1CCOCC1"
class_label = "F"

[[record]]
compound = "CNC(=O)c1ccc(S(=O)(=O)NC[C@@H](O)C[C@@H](Cc2ccccc2)C(=O)N[C@H]2c3ccccc3C[C@H]2O)cc1"
class_label = "T"

[[record]]
compound = "O=C([C@H](Cc1ccccc1)C[C@H](O)CNS(=O)(=O)c1ccc([N+](=O)[O-])cc1)N1CCC(CO)CC1"
class_label = "F"

[[record]]
compound = "O=C(NC[C@@H](O)C[C@@H](Cc1ccccc1)C(=O)N[C@H]1c2ccccc2C[C@H]1O)C1CCCCCC1"
class_label = "T"

[[record]]
compound = "O=C(O)c1ccc(S(=O)(=O)NC[C@@H](O)C[C@@H](Cc2ccccc2)C(=O)N[C@H]2c3ccccc3C[C@H]2O)cc1"
class_label = "F"

[[record]]
compound = "O=C(NC[C@@H](O)C[C@@H](Cc1ccccc1)C(=O)N[C@H]1c2ccccc2C[C@H]1O)C1CC1"
class_label = "T"

[[record]]
compound = "CCCCCNc1ccc(S(=O)(=O)NC[C@@H](O)C[C@@H](Cc2ccccc2)C(=O)N[C@H]2c3ccccc3C[C@H]2O)cc1"
class_label = "T"

[[record]]
compound = "O=C(NC[C@@H](O)C[C@@H](Cc1ccccc1)C(=O)N[C@H]1c2ccccc2C[C@H]1O)c1c(Cl)cc(Cl)cc1Cl"
class_label = "T"

[[record]]
compound = "O=C(CCCCBr)NC[C@@H](O)C[C@@H](Cc1ccccc1)C(=O)N[C@H]1c2ccccc2C[C@H]1O"
class_label = "T"

[[record]]
compound = "O=C(NC[C@@H](O)C[C@@H](Cc1ccccc1)C(=O)N[C@H]1c2ccccc2C[C@H]1O)c1ccco1"
class_label = "T"

[[record]]
compound = "O=C(NN1CCCCC1)[C@@H](Cc1ccccc1)C[C@H](O)CNS(=O)(=O)c1ccc([N+](=O)[O-])cc1"
class_label = "T"

[[record]]
compound = "CC(=O)Nc1ccc(S(=O)(=O)NC[C@H](C[C@@H](Cc2ccccc2)C(=O)N[C@H]2c3ccccc3C[C@H]2OC(C)=O)OC(C)=O)cc1"
class_label = "F"

[[record]]
compound = "O=C(NC1CCCc2ccccc21)[C@H](Cc1ccccc1)C[C@H](O)CNS(=O)(=O)c1ccc([N+](=O)[O-])cc1 (stereo not given in full)"
class_label = "T"

[[record]]
compound = "O=C(N[C@H]1c2ccccc2C[C@H]1O)[C@H](Cc1ccccc1)C[C@H](O)CNS(=O)(=O)c1ccc(C(F)(F)F)cc1"
class_label = "T"

[[record]]
compound = "O=C(NN1CCCCC1)[C@H](Cc1ccccc1)C[C@H](O)CNS(=O)(=O)c1ccc([N+](=O)[O-])cc1"
class_label = "F"

[[record]]
compound = "CCNC(=O)[C@@H](Cc1ccccc1)C[C@H](O)CNS(=O)(=O)c1ccc([N+](=O)[O-])cc1"
class_label = "F"

[[record]]
compound = "O=C(N[C@H]1c2ccccc2C[C@H]1O)[C@H](Cc1ccccc1)C[C@H](O)CNS(=O)(=O)c1cccc([N+](=O)[O-])c1"
class_label = "T"

[[record]]
compound = "C[C@H](CC(C)(C)C)NC(=O)[C@@H](Cc1ccccc1)C[C@H](O)CNS(=O)(=O)c1ccc([N+](=O)[O-])cc1"
class_label = "T"

[[record]]
compound = "N#Cc1ccc(S(=O)(=O)NC[C@@H](O)C[C@@H](Cc2ccccc2)C(=O)N[C@H]2c3ccccc3C[C@H]2O)cc1"
class_label = "T"

[[record]]
compound = "C#CCNC(=O)[C@H](Cc1ccccc1)C[C@H](O)CNS(=O)(=O)c1ccc([N+](=O)[O-])cc1"
class_label = "F"

[[record]]
compound = "O=C(CCCCl)NC[C@@H](O)C[C@@H](Cc1ccccc1)C(=O)N[C@H]1c2ccccc2C[C@H]1O"
class_label = "T"

[[record]]
compound = "C=Cc1ccc(C(=O)NC[C@@H](O)C[C@@H](Cc2ccccc2)C(=O)N[C@H]2c3ccccc3C[C@H]2O)cc1"
class_label = "T"

